test system: ACHN renal; assay: NCI tumour cell line growth inhibition, 48 h
Please use y whenever TGI is not below 20 µM, and n whenever it is.

For orientation, consider the following solved cases.
Molecule	Assigned class
COc1cc(OC)cc(-c2n/c(=C\c3c(O)[nH]c4ccc(Cl)cc34)cc3c2=Nc2ccccc2-3)c1	y
COP(=O)(OC)C(NC=O)P(=O)(OC)OC	y
C/C=C/[C@H]1O[C@@](O)([C@@H](C)[C@H](O)[C@H](C)[C@H]2OC(=O)/C(OC)=C/C(C)=C/[C@@H](C)[C@@H](O)[C@@H](CC)[C@@H](O)[C@H](C)C/C(C)=C/C=C/[C@@H]2OC)C[C@H](OC2CC(O)C(OC(N)=O)C(C)O2)[C@@H]1C (stereo not given in full)	n
Cn1c2c(c3ccccc31)CCN1C(=O)C3SC21C1C(=O)N(c2ccccc2)C(=O)C31 (stereo not given)	y
Cc1ccc(Sc2oc(-c3ccc(C)cc3)nc2[P+](c2ccccc2)(c2ccccc2)c2ccccc2)cc1	n
Cc1ccc(SC[C@@]2(C(F)F)NC(=O)NC2=O)cc1	y
CC(=O)O.CC(=O)O.CC(=O)O.CC(=O)O.[Rh].[Rh]	y
COc1cc(/C=C/[N+](=O)[O-])cc(OC)c1OC	n

Turning now to a further molecule:
Request: Can COC1(C)C(=O)N2C1N(C(=O)OCc1ccccc1)CC2(C)C (stereo not given) be said to have TGI at or above 20 µM?
Response: y

###

test system: OVCAR-3 ovarian; assay: NCI tumour cell line growth inhibition, 48 h
List of TGI values.
Give the number; µM is assumed, so skip it.

Completed entries (count: 3):
Compound	TGI [µM]
COc1nc(OC)nc(-c2cccc(F)c2)n1	27.7
CC1=C[C@@H](C)C[C@]2(C)CC[C@H](O2)[C@]23CC[C@](C)(C[C@H](O2)[C@@H]2O[C@@](C)(CC2=O)[C@@H](O)[C@H]2CC[C@@]4(CCC[C@@H](O4)[C@H](C)C(=O)O[C@H]4C[C@H]([C@]5(O)OCC[C@H](C)[C@@H]5O)O[C@H]4C=C1)O2)O3	0.02
Oc1c(Cl)cc(Cl)c2cccnc12	11.6

Request: Note down TGI recorded for CCN1CCCC(Nc2cc(C)nc(/N=C(/N)Nc3ccc(Cl)c(Cl)c3)n2)C1 (stereo not given)
Response: 3.59

Request: Note down TGI recorded for C=C1CC[C@@H]2[C@](C)(COC(C)=O)[C@H](OC(C)=O)CC[C@@]2(C)[C@@H]1CC(Nc1ccc(S(=O)(=O)Nc2nccs2)cc1)C1=CCOC1=O (stereo not given in full)
Response: 3.64

Request: Note down TGI recorded for CC(=O)O[C@H]1CN(S(=O)(=O)c2ccc(C)cc2)C[C@@H]1C1CCCCC1
Response: 43.5

Request: Note down TGI recorded for Clc1ccccc1NN(Cc1ccncc1)c1ccccc1Cl
Response: 26.3

###

tested on: SK-MEL-28 melanoma; experiment: NCI tumour cell line growth inhibition, 48 h
Measured quantity: TGI (µM)
Give the number; µM is assumed, so skip it.

Compound	Experimental target	Unit	Endpoint result
CC(C)C(C/C=C1/CC(CO)(COC(=O)C2CCCCC2)OC1=O)C(C)C (stereo not given)	SK-MEL-28 melanoma	µM	35.1

Request: Note down TGI recorded for Nc1n[nH]c(N)c1N=Nc1ccc(O)cc1
Response: 63.8
